Values were extracted from patent US9493468B2.

System: Candida parapsilosis
assay_text: Antifungal activity in vitro, resazurin growth inhibition: Candida parapsilosis (B66126)
Type: cell-based
observation_type: Inf. D: Candida parapsilosis B66126, pIC50

> print(dat)
                            compound.string                target  readout.value
1    CCc1ccc(C2=NCc3c(Cl)cccc3-n3cccc32)cn1  Candida parapsilosis           4.92
2    Cc1cccc2cc(C3=NCc4ccccc4-n4cccc43)oc12  Candida parapsilosis           5.35
3  Clc1cccc2c1CN=C(c1cnc3c(c1)CCC3)c1cccn1-2  Candida parapsilosis           4.91

----------
System: Trichophyton mentagrophytes
assay_text: Antifungal activity in vitro, resazurin growth inhibition: Trichophyton mentagrophytes (B70554)
Type: cell-based
Experimental: The standard susceptibility screen is performed in 96-well plates (U-bottom, Greiner Bio-One). Serial dilutions (2-fold or 4-fold) of 20 mM compound stock solutions are made in 100% DMSO, followed by an intermediate dilution step in water. These serial dilutions (10 μl) are then spotted onto test-plates that can be stored in the dark at 4° C. for a maximum period of 2 weeks. An adequate broad dose-range is included with 64 μM as the highest in-test concentration. […]
observation_type: Inf. G: Trichophyton mentagrophytes B70554, pIC50

> print(dat)
                                   compound  readout.value
1  Cl.FC(F)(F)c1ncc(C2NCc3c(Cl)cccc3-n3cccc32)cn1 (racemic)           4.44
2  Fc1ccc2oc(C3=NCc4ccc(Cl)cc4-n4cccc43)cc2c1           5.75
3  Fc1cc(F)c2c(c1)-n1cccc1C(c1ccc3scnc3c1)=NC2           5.31
4  Clc1cccc2c1CN=C(c1cnc3c(c1)CCC3)c1cccn1-2           6.91
5  Cn1nc2ccc(C3=NCc4c(Cl)cccc4-n4cccc43)cc2n1           5.43
6  CC(C)n1ccc(C2=NCc3cccc(Cl)c3-n3cccc32)cc1=O           5.78
7  Fc1cc(F)c2oc(C3=NCc4c(Cl)cccc4-n4cccc43)cc2c1           6.30

----------
Test system: Trichophyton mentagrophytes
assay_text: Antifungal activity in vitro, resazurin growth inhibition: Trichophyton mentagrophytes (B70554)
Format: cell-based
observation_type: Inf. G: Trichophyton mentagrophytes B70554, pIC50

> print(dat)
                                    compound  readout.value
 1  Cc1cc(C2=NCc3c(C)cccc3-n3cccc32)ccn1 [Compound 97]           4.83
 2  CCc1ccc(C2NCc3c(Cl)cccc3-n3cccc32)cn1.Cl (racemic) [Compound 14]           4.74
 3  Clc1cccc2c1CNC(c1ccccn1)c1cccn1-2 (racemic) [Compound 11]           4.72
 4  FC(F)(F)c1ccc(C2=NCc3c(Cl)cccc3-n3cccc32)cn1 [Compound 89]           6.23
 5  COc1cccc2cc(C3=NCc4ccccc4-n4cccc43)oc12 [Compound 157]           5.96
 6  Cn1nnc2ccc(C3=NCc4c(Cl)cc(Cl)cc4-n4cccc43)cc21 [Compound 111]           5.31
 7  Cc1ccc2cc(C3=NCc4c(Cl)cccc4-n4cccc43)oc2c1 [Compound 138]           6.83
 8  Cl.Clc1cc(Cl)c2c(c1)-n1cccc1C(c1cc3ccccc3o1)NC2 (racemic) [Compound 31]           4.87
 9  COc1ccc2oc(C3=NCc4c(Cl)cc(Cl)cc4-n4cccc43)cc2c1 [Compound 148]           4.19
10  Cc1nc2ccc(C3=NCc4c(Cl)cccc4-n4cccc43)cc2o1 [Compound 162]           5.21
11  CCc1ccc(C2=NCc3c(Cl)cc(Cl)cc3-n3cccc32)cn1 [Compound 76]           5.00
12  Cl.Clc1cccc2c1CNC(c1ccc3scc(Cl)c3c1)c1cccn1-2 (racemic) [Compound 58]           5.09
13  COc1ccc2oc(C3NCc4c(Cl)cccc4-n4cccc43)cc2c1.Cl (racemic) [Compound 44]           4.77
14  CC(F)(F)c1ccc(C2=NCc3c(Cl)cc(Cl)cc3-n3cccc32)cn1 [Compound 84]           5.88
15  CCc1ccc(C2=NCc3c(Cl)cccc3-n3cccc32)cn1 [Compound 74]           6.18
16  Clc1cccc2c1-n1cccc1C(c1ccc3ncsc3c1)=NC2 [Compound 186]           6.06
17  CCc1cnc(C2=NCc3c(Cl)cccc3-n3cccc32)s1 [Compound 66]           4.19
18  FC(F)(F)c1ncc(C2=NCc3c(Cl)cccc3-n3cccc32)cn1 [Compound 102]           6.01
19  Clc1ccc2oc(C3=NCc4c(Cl)cccc4-n4cccc43)cc2c1 [Compound 121]           6.86
20  Cc1ccc2cc(C3=NCc4ccccc4-n4cccc43)oc2c1 [Compound 137]           6.89
21  CCn1cc(C2=NCc3cc(Cl)cc(Cl)c3-n3cccc32)cn1 [Compound 62]           4.86

----------
Test system: Trichophyton rubrum
assay_text: Antifungal activity in vitro, resazurin growth inhibition: Trichophyton rubrum (B68183)
Type: cell-based
observation_type: Inf. C: Trichophyton rubrum B68183, pIC50

> print(dat)
                                   compound  readout.value
1  Br.Clc1cccc2c1CNC(c1ccncc1)c1cccn1-2 (racemic)           5.52
2  Cn1nc2ccc(C3=NCc4c(Cl)cc(Cl)cc4-n4cccc43)cc2n1           5.70
3  Clc1cc(Cl)c2c(c1)-n1cccc1C(c1cc3ccccc3o1)=NC2           6.31
4  Cl.FC(F)(F)c1ncc(C2NCc3c(Cl)cccc3-n3cccc32)cn1 (racemic)           5.10
5   Clc1cccc2c1CN=C(c1ccc3nsnc3c1)c1cccn1-2           6.82
6  Cc1nc2ccc(C3=NCc4c(Cl)cccc4-n4cccc43)cc2o1           5.61
7  Cl.Clc1cc(Cl)c2c(c1)-n1cccc1C(c1cc3ccccc3s1)NC2 (racemic)           5.71
8    Cc1cccc2c1-n1cccc1C(c1cc3ccccc3s1)=NC2           6.51

----------
Each record here notes measured Inf. D: Candida parapsilosis B66126, pIC50.
Test system: Candida parapsilosis
assay_text: Antifungal activity in vitro, resazurin growth inhibition: Candida parapsilosis (B66126)
Assay type: cell-based

The following compounds have reported results that may help.
> print(dat)
                                   compound                target  readout.value
1  CCn1cc(C2=NCc3c(Cl)ccc(Cl)c3-n3cccc32)cn1  Candida parapsilosis          <4.19
2  Cl.FC(F)(F)c1ccc(C2NCc3ccccc3-n3cccc32)cn1 (racemic)  Candida parapsilosis          <4.19

Problem: Param readout= Inf. D: Candida parapsilosis B66126, pIC50; system= Candida parapsilosis; entry= Cn1ccc2ccc(C3=NCc4c(Cl)cccc4-n4cccc43)cc21 ; returns value.
Result: 5.25

Problem: GET /values?readout=Inf. D: Candida parapsilosis B66126, pIC50&system=Candida parapsilosis&item= c1ccc2c(c1)CN=C(c1cc3ccccc3s1)c1cccn1-2
Result: 5.12

Problem: # value lookup — system Candida parapsilosis, readout Inf. D: Candida parapsilosis B66126, pIC50, item COc1ccc2oc(C3NCc4ccc(Cl)cc4-n4cccc43)cc2c1.Cl (racemic)
Result: <4.19

Problem: Record lookup: for Candida parapsilosis, what Inf. D: Candida parapsilosis B66126, pIC50 belongs to CC(F)(F)c1ccc(C2=NCc3c(F)cc(F)cc3-n3cccc32)cn1 ?
Result: 5.56

Problem: Any idea what Inf. D: Candida parapsilosis B66126, pIC50 came out for COc1ccc2oc(C3=NCc4ccc(Cl)cc4-n4cccc43)cc2c1 on Candida parapsilosis?
Result: <4.19

Problem: So what Inf. D: Candida parapsilosis B66126, pIC50 did FC(F)(F)c1ncc(C2=NCc3c(Cl)cccc3-n3cccc32)cn1 get with Candida parapsilosis?
Result: <4.19

Problem: Request: Inf. D: Candida parapsilosis B66126, pIC50, test system Candida parapsilosis, entry FC(F)(F)c1ccc(C2=NCc3ccccc3-n3cccc32)cn1
Result: <4.19

----------
System: Trichophyton rubrum
assay_text: Antifungal activity in vitro, resazurin growth inhibition: Trichophyton rubrum (B68183)
Type: cell-based
observation_type: Inf. C: Trichophyton rubrum B68183, pIC50

> print(dat)
                                   compound  readout.value
1  Clc1cccc2c1CNC(c1ccccn1)c1cccn1-2 (racemic)           4.71
2  CC(F)(F)c1ccc(C2=NCc3c(Cl)cc(Cl)cc3-n3cccc32)cn1           6.26
3  Clc1ccc(Cl)c2c1CN=C(c1ccc3ccoc3c1)c1cccn1-2           4.95
4  Cc1ccc2cc(C3=NCc4c(Cl)cc(Cl)cc4-n4cccc43)oc2c1           4.40
5    Clc1ccc(C2=NCc3c(Cl)cccc3-n3cccc32)cn1           6.22
